# EXPERIMENTAL_TARGET: T1, hMC1-R (human, UniProt Q01726 1-317)
# T1 construct: whole, on cells; Assayed as membranes of CHO-K1 cells expressing the receptor; also called hMC-R receptor subtype 1; melanocyte-specific receptor (MC1-R)
# T1 sequence (Q01726 whole entry): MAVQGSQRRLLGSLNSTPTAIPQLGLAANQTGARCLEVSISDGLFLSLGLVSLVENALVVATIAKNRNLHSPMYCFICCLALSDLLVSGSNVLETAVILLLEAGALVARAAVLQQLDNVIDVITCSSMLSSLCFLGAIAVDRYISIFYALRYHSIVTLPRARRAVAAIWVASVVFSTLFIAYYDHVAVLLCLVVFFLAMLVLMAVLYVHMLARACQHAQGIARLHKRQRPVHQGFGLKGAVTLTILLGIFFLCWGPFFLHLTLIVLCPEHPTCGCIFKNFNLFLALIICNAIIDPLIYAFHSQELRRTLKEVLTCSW
# PROTOCOL_NOTES: competition with [125I]-NDP-α-MSH, CHO-K1 membranes
Bridge positions count the residues as written; N and C are the ends. Square brackets hold non-standard residues; d marks the D form. Ends that are not written are not given here. Cha = N[C@@H](CC1CCCCC1)C(=O)O; Pen = CC(C)(S)[C@H](N)C(=O)O; Nle = CCCC[C@H](N)C(=O)O; Ava = NCCCCC(=O)O; GABA = NCCCC(=O)O; βAla = NCCC(=O)O
Each entry below carries its reported pKi.
In simple prose, pKi is minus the logarithm base ten of a concentration in moles per litre.

Would you please look over these solved cases?
BINDER	pKi
Ac-[Nle]CH[dF]RW[GABA][Pen]-NH2 (disulfide 2-8) [Ac-Nle-c(Cys-His-D-Phe-Arg-Trp-Gaba-Pen)-NH2]	9.92
[Nle]CH[dF]RW[Ava]C-NH2 (disulfide 2-8; N-terminus assumed; SMILES CCCC[C@H](N)C(=O)N[C@H]1CSSC[C@@H](C(N)=O)NC(=O)CCCCNC(=O)[C@H](Cc2c[nH]c3ccccc23)NC(=O)[C@H](CCCNC(=N)N)NC(=O)[C@@H](Cc2ccccc2)NC(=O)[C@H](Cc2c[nH]cn2)NC1=O) [Nle-c(Cys-His-D-Phe-Arg-Trp-Apn-Cys)-NH2]	10.15
Ac-ICH[dF]RW[GABA]C-NH2 (disulfide 2-8; SMILES CC[C@H](C)[C@H](NC(C)=O)C(=O)N[C@H]1CSSC[C@@H](C(N)=O)NC(=O)CCCNC(=O)[C@H](Cc2c[nH]c3ccccc23)NC(=O)[C@H](CCCNC(=N)N)NC(=O)[C@@H](Cc2ccccc2)NC(=O)[C@H](Cc2c[nH]cn2)NC1=O) [Ac-Ile-c(Cys-His-D-Phe-Arg-Trp-Gaba-Cys)-NH2]	9.83
Ac-[Cha]DH[dF]RW[GABA]K-NH2 (lactam 2-8; SMILES CC(=O)N[C@@H](CC1CCCCC1)C(=O)N[C@H]1CC(=O)NCCCC[C@@H](C(N)=O)NC(=O)CCCNC(=O)[C@H](Cc2c[nH]c3ccccc23)NC(=O)[C@H](CCCNC(=N)N)NC(=O)[C@@H](Cc2ccccc2)NC(=O)[C@H](Cc2c[nH]cn2)NC1=O) [Ac-Cha-c(Asp-His-D-Phe-Arg-Trp-Gaba-Lys)-NH2]	9.97
FCH[dF]RW[GABA]C-NH2 (disulfide 2-8; N-terminus assumed; SMILES N=C(N)NCCC[C@@H]1NC(=O)[C@@H](Cc2ccccc2)NC(=O)[C@H](Cc2c[nH]cn2)NC(=O)[C@@H](NC(=O)[C@@H](N)Cc2ccccc2)CSSC[C@@H](C(N)=O)NC(=O)CCCNC(=O)[C@H](Cc2c[nH]c3ccccc23)NC1=O) [Phe-c(Cys-His-D-Phe-Arg-Trp-Gaba-Cys)-NH2]	9.73
Ac-[Nle]DH[dF]RW[βAla]K-NH2 (lactam 2-8; SMILES CCCC[C@H](NC(C)=O)C(=O)N[C@H]1CC(=O)NCCCC[C@@H](C(N)=O)NC(=O)CCNC(=O)[C@H](Cc2c[nH]c3ccccc23)NC(=O)[C@H](CCCNC(=N)N)NC(=O)[C@@H](Cc2ccccc2)NC(=O)[C@H](Cc2c[nH]cn2)NC1=O) [Ac-Nle-c(Asp-His-D-Phe-Arg-Trp-β-Ala-Lys)-NH2]	10.00

As a next step, examine the binder that follows.
*Q* Suppose we examine the binder Ac-[Nle]CH[dF]RW[Ava]C-NH2 (disulfide 2-8; SMILES CCCC[C@H](NC(C)=O)C(=O)N[C@H]1CSSC[C@@H](C(N)=O)NC(=O)CCCCNC(=O)[C@H](Cc2c[nH]c3ccccc23)NC(=O)[C@H](CCCNC(=N)N)NC(=O)[C@@H](Cc2ccccc2)NC(=O)[C@H](Cc2c[nH]cn2)NC1=O) [Ac-Nle-c(Cys-His-D-Phe-Arg-Trp-Apn-Cys)-NH2] ; what pKi value has been reported?
*A* 10.02
